- SYSTEM NAME: GppNHp-KRAS G12D mutant protein (Homo sapiens, UniProt P01116, G12D)
- Construct: purchased Daegu Gyeongbuk Medical Innovation Foundation (DGMIF), made to order
- ASSAY DETAILS: Differential scanning fluorimetry (DSF) binding affinity to GppNHp-KRAS G12D mutant protein
- TEST CONDITIONS: DSF thermal shift, 10 μM compound, 4 μg KRAS protein, 50 mM HEPES (pH 7.5)
A collection of compounds and their measured GppNHp-KRAS G12D (ΔTmD, ° C.)
Output spec: scalar in °C, unitless text.

Here's what some known entries look like.
{"columns": ["COMPOUND", "SYSTEM NAME", "UNITS OF MEASURE", "GppNHp-KRAS G12D (ΔTmD, ° C.)"],
 "data": [
  ["CCc1c(F)ccc2cc(O)cc(-c3c(F)c4nc(OC[C@@]56CCCN5CC(=C(F)F)C6)nc(N5C[C@H]6CC[C@@H](C5)N6)c4c4cn(C)nc34)c12 [Example 97]", "GppNHp-KRAS G12D mutant protein (Homo sapiens, UniProt P01116, G12D)", "°C", 8.42],
  ["C#Cc1c(F)ccc2cc(N)cc(-c3cc4nc(OC[C@@]56CCCN5CC(=C(F)F)C6)nc(N5[C@@H]6CC[C@H]5CNC6)c4n4ccnc34)c12 [Example 108]", "GppNHp-KRAS G12D mutant protein (Homo sapiens, UniProt P01116, G12D)", "°C", 5.36],
  ["C#Cc1c(F)ccc2cc(O)cc(-c3cc4nc(OCC5(CN6CCC[C@H](F)C6)CC5)nc(N5[C@@H]6CC[C@H]5CNC6)c4n4ccnc34)c12 [Example 19]", "GppNHp-KRAS G12D mutant protein (Homo sapiens, UniProt P01116, G12D)", "°C", 3.82],
  ["C#Cc1c(F)ccc2cc(O)cc(-c3c(F)c4nc(OCC5(CN6CCC7(CC6)CC7(F)F)CC5)nc(N5C[C@H]6CC[C@@H](C5)N6)c4c4cc(C)oc34)c12 [Example 59]", "GppNHp-KRAS G12D mutant protein (Homo sapiens, UniProt P01116, G12D)", "°C", 6.06]
]}

Task: Give the reported value of GppNHp-KRAS G12D (ΔTmD, ° C.) for this record: CN(C)C1(CNc2nc(OC[C@@]34CCCN3C[C@H](F)C4)nc3cc(-c4cc(O)cc5ccc(F)c(F)c45)c4nccn4c23)CCC1 [Example 5]
Result: 1.60

Task: Give the reported value of GppNHp-KRAS G12D (ΔTmD, ° C.) for this record: Cc1cc2c(o1)c(-c1c(Cl)c(C)cc3[nH]ncc13)c(F)c1nc(OC[C@@]34CCCN3C[C@H](F)C4)nc(N3C[C@H]4CC[C@@H](C3)N4)c12 [Example 51]
Result: 1.32
